Test system: UACC-257
Experimental Details: NCI tumour cell line growth inhibition, 48 h
Activity calls are given as the source filed them. Cut-off read from the data, not from the text of the source: active = GI50 up to about 1.1 µM and inactive = higher.
Measure: GI50

Record "Cc1cc(NS(=O)(=O)c2ccc(NC(NC(=O)C(C(F)(F)F)C(F)(F)F)(C(F)(F)F)C(F)(F)F)cc2)no1" has UACC-257 GI50 equal to > 100 µM (inactive)

So the reported GI50 for "CN(C)CCNC(=O)c1cccc2[nH]c(-c3ccccn3)nc12" , on UACC-257, turned out to be 28.6 µM (inactive)

Given the molecule C#CC1NC(=O)C1N(CC)CC (stereo not given) and test system UACC-257, the measured GI50 is > 100 µM (inactive)

Result for "OCC#CCNCl" , tested on UACC-257, GI50: > 73.6 µM (inactive)

Measured on UACC-257, CN1C2CC(=O)CC1[C@@H]1OC(c3ccccc3)O[C@H]21 (stereo not given in full) has a documented GI50 of > 100 µM (inactive)

Given the molecule "O=c1[nH]c(=O)n(COCc2ccccc2)c2ccsc12" and test system UACC-257, the measured GI50 is > 100 µM (inactive)

The value of GI50 recorded for "O=Cc1cccc2c1Oc1c(cccc1C(=O)O)S2" when tested on UACC-257 reads > 100 µM (inactive)

// molecule CC(=O)OCC1OC(SC2=N/C(=C\c3ccc(Br)s3)C(=O)N2CN2CCOCC2)C(OC(C)=O)C(OC(C)=O)C1OC(C)=O (stereo not given) , assay UACC-257, GI50 value: 16.6 µM (inactive)

Log: UACC-257, molecule "O=c1n(-c2ccccc2)c(=O)n2n1C1CCC2CC1" , GI50 = > 100 µM (inactive)

Form field, GI50 with UACC-257, item "O=C(c1cc2c(C(F)(F)F)onc2c2ccccc12)C(F)(F)F" : 5.61 µM (inactive)

Tested on UACC-257: CCCCNC1CCCCC[C@H]1O (stereo not given in full) . Observed GI50: > 100 µM (inactive)

Here COC(=O)C(C(=O)C(=O)Nc1ccc(N)cc1[N+](=O)[O-])c1nc2ccc(Cl)cc2nc1O (stereo not given) was tested on UACC-257, and its GI50 came to > 100 µM (inactive)

Tested on UACC-257, the item "O=C1c2ccsc2-c2cccc3cccc1c23.O=C1c2sccc2-c2cccc3cccc1c23" showed GI50 equal to 9.2 µM (inactive)

For the molecule "CCc1nc(N)nc(N)c1-c1ccc(N2CCNCC2)c([N+](=O)[O-])c1" , the measured GI50 on UACC-257 was 13.9 µM (inactive)

// assay UACC-257, entry "c1ccc2c[n+](CCCCCCCCCC[n+]3ccc4ccccc4c3)ccc2c1" , GI50 value = 3.48 µM (inactive)

====

System: NCI-H522
Experimental Details: NCI tumour cell line growth inhibition, 48 h
Activity calls are given as the source filed them. Cut-off read from the data, not from the text of the source: active = GI50 up to about 1.1 µM and inactive = higher.
// classify into active, inactive

Which outcome was entered for the compound "Cc1cc(=O)n2nc(CSc3nnc(N)s3)sc2n1" in this test?
inactive

For "O=C(O)CNc1ccc(Cl)c(Cl)c1" , which call appears in the assay record?
inactive

Just curious, what result did "O=C1c2ccsc2-c2cccc3cccc1c23.O=C1c2sccc2-c2cccc3cccc1c23" get here?
inactive

What did this assay record as the result for "CC(=O)O[C@H]1CC[C@@]2(C)C(=CC[C@@H]3[C@@H]2CC[C@]2(C)c4c(C)nn(-c5ccccc5)c4C[C@@H]32)C1" ?
inactive

Which outcome was assigned to "ClCCNCCNCCCl.ClCCNCCNCCCl.[O-][Cl+3]([O-])([O-])O" in this test?
inactive

Given "C(=C\Nc1ccc(-c2ccccc2)cc1)/C=N/c1ccc(-c2ccccc2)cc1" , state the outcome it received in this test.
inactive

How did this test come out for C=C(CCC=C(C)C)C1CC=C(C)CC1 (configuration not stated) ?
inactive

Query: recorded result category for "O=C(OCc1ccccc1)N1CCNCCN(C(=O)OCc2ccccc2)CCNCC1" in this test
inactive

Entry "O=C1C(c2ccccc2)=C(c2ccccc2)C(c2ccc(CCCCCCc3ccc(C4=C(c5ccccc5)C(=O)C(c5ccccc5)=C4c4ccccc4)cc3)cc2)=C1c1ccccc1" : call = ?
inactive

Hi, do you know how CCOC(=O)C(C#N)(Cc1c[nH]c2ccccc12)NC(C)=O (configuration not stated) came out in this test?
inactive

# fetch the recorded call for "Oc1nc2c(c(-c3ccc(Br)cc3)n1)COC/C2=C\c1ccc(Br)cc1" here
inactive

Called result for "O=Cc1cccc2c1Oc1c(cccc1C(=O)O)S2"
inactive

What did the test return for "Cn1cnc2c(OCC3CCCCC3)nc(N)nc21" ?
inactive

Recorded test call requested for "CN1CCN(C2=CC(=O)c3c(O)ccc(O)c3C2=O)CC1"
inactive

Check the results log: what was the call for "COC(=O)/C=C/C1(O)C=CC(=O)C=C1" ?
active

Check the results log: what was the call for "O=c1c(C(c2cccnc2)c2c(O)oc3cc(O)ccc3c2=O)c(O)oc2cc(O)ccc12" ?
inactive

Called result for "COc1ccc(CC(N)=O)cc1OC"
inactive

Tell me the recorded outcome of this test for "O=c1ccn(C/C=C/c2ccccc2)c(=S)n1C/C=C/c1ccccc1" .
inactive

How did this test come out for "C=CCONC(=O)c1ccc(Cl)cc1" ?
inactive

Can you look up the reported call for "CC1(C)CC(=O)C(C(c2cccc(O)c2O)C2C(=O)CC(C)(C)CC2=O)C(=O)C1" for me?
inactive

Recorded test call requested for "S=c1[nH]c(=S)c2nnn(-c3ccccc3)c2[nH]1"
inactive

Identify the outcome logged in this assay for the compound shown: "[N-]=[N+]=NI1OC(=O)c2ccccc21"
inactive

The values you see were collected from ChEMBL document CHEMBL1201862.
